assay: The dose at which 50% of the mouse fell off the rotarod; format: ADME, organism-based; settings: in vivo
PROPERTY: TD50

# SMILES_STRUCTURE, RESULT
measured = [
    ("CCCC/N=C(/C)Nc1nnc(-c2ccccc2-c2ccccc2)s1", "> 200 mg/kg"),
    ("CCCC/N=C(/C)Nc1nnc(-c2ccccc2C)s1", "> 100 mg/kg"),
    ("CC(=N)Nc1nnc(Cc2ccccc2)s1", "200 mg/kg"),
    ("CC(=N)Nc1nnc(-c2ccccc2C(F)(F)F)s1", "~80 mg/kg"),
    ("CC(=N)Nc1nnc(-c2ccccc2-c2ccccc2)s1", "> 100 mg/kg"),
]

Give TD50 for all molecules that follow.
1. CCCC(=N)Nc1nnc(-c2ccccc2C(F)(F)F)s1
2. CCCC/N=C(/C)Nc1nnc(-c2ccccc2C(F)(F)F)s1
3. N=C(Cc1ccccc1)Nc1nnc(Cc2ccccc2)s1
4. C/C(=N/Cc1ccccc1)Nc1nnc(-c2ccccc2C)s1

1. 150 mg/kg
2. ~70 mg/kg
3. > 500 mg/kg
4. > 200 mg/kg

Could you share which TD50 value was measured for CCN(CC)/C(C)=N/c1nnc(-c2ccccc2C)s1 ?
> 200 mg/kg

Reference for the values: ChEMBL document CHEMBL1123965
